Organism: Rattus norvegicus
Experiment: Open TG-GATES - Regimen: Daily Repeat
Assay type: toxicity, organism-based, Sprague-Dawley
Parameters: regimen Daily Repeat, gender Male, age 6 weeks
Details: in vivo, po, 300 mg/kg, […], tissue Plasma, route gavage, dose level Middle, time 28 day
quantity.measured: gamma-GTP

CNC(=C[N+](=O)[O-])NCCSCc1ccc(CN(C)C)o1: 1 IU/L
CN/C(=N/CCSCc1nc[nH]c1C)NC#N: 1.2 IU/L
COC(=O)C1=C(C)NC(C)=C(C(=O)OC)C1c1ccccc1[N+](=O)[O-]: 1 IU/L
CCOc1ccc(NC(C)=O)cc1: 1 IU/L
Cc1nnc2n1-c1ccc(Cl)cc1C(c1ccccc1Cl)=NC2: 1 IU/L
O=C(OC[C@H]1O[C@@H](OC(=O)c2cc(O)c(O)c(OC(=O)c3cc(O)c(O)c(O)c3)c2)[C@H](OC(=O)c2cc(O)c(O)c(OC(=O)c3cc(O)c(O)c(O)c3)c2)[C@@H](OC(=O)c2cc(O)c(O)c(OC(=O)c3cc(O)c(O)c(O)c3)c2)[C@@H]1OC(=O)c1cc(O)c(O)c(OC(=O)c2cc(O)c(O)c(O)c2)c1)c1cc(O)c(O)c(OC(=O)c2cc(O)c(O)c(O)c2)c1: 0.5 IU/L
